- System: leucémie P 388
- Assay type: in vivo, souris hybrides CDF1
- MEASUREMENT PARAMETERS: 40 mg/kg i.p. J1-J5; at day J 40
RECORDED ENDPOINT: Survivants

[[record]]
compound = "CCN(CC)CCCNc1ncc(C)c2c1c1cnccc1n2C [Dérivé N° 4]"
result = "0/10"

[[record]]
compound = "CCN(CC)CCCNc1ncc(C)c2[nH]c3ccncc3c12 [Dérivé N° 1]"
result = "0/10"

[[record]]
compound = "Cc1cnc(NCCCN(C)C)c2c3cnccc3n(C)c12 [Dérivé N° 9]"
result = 0

[[record]]
compound = "Cc1cnc(NCCCN(C)C)c2c1[nH]c1ccncc12 [Dérivé N° 3]"
result = 1

[[record]]
compound = "Cc1cnc(NCCCN(C)C)c2c1[nH]c1ccncc12 [Dérivé N° 3 bis]"
result = "0/10"


----------
survival listing for selected molecules.
- TEST NAME: in vivo
- Set-up: species or system souris
- MEASUREMENT PARAMETERS: mouse, ip, 100 mg/kg
RECORDED ENDPOINT: survival (%)

[[record]]
smiles_string = "Cc1cnc(NCCCN(C)C)c2c3cnccc3n(C)c12"
recorded_endpoint = "survival"
numeric_value = 100

[[record]]
smiles_string = "CCN(CC)CCCNc1ncc(C)c2[nH]c3ccncc3c12"
recorded_endpoint = "survival"
numeric_value = 100

[[record]]
smiles_string = "Cc1cnc(NCCCN(C)C)c2c1[nH]c1ccncc12"
recorded_endpoint = "survival"
numeric_value = 100


----------
- TEST NAME: in vivo
- Parameters: species or system souris
- MEASUREMENT PARAMETERS: mouse, ip, 200 mg/kg
RECORDED ENDPOINT: survival (%)

[[record]]
smiles_string = "Cc1cnc(NCCNCCO)c2c1[nH]c1ccncc12"
recorded_endpoint = "survival"
numeric_value = 100


----------
- System: leucémie P 388
- Assay type: in vivo, souris hybrides CDF1
- MEASUREMENT PARAMETERS: 20 mg/kg i.p. J1-J5; at day J 40
Survivants listing for selected compounds.
RECORDED ENDPOINT: Survivants

[[record]]
compound = "CCN(CC)CCCNc1ncc(C)c2[nH]c3ccncc3c12 [Dérivé N° 1]"
result = "0/10"

[[record]]
compound = "Cc1cnc(NCCCN(C)C)c2c1[nH]c1ccncc12 [Dérivé N° 3 bis]"
result = "0/10"

[[record]]
compound = "CCN(CC)CCCNc1ncc(C)c2c1c1cnccc1n2C [Dérivé N° 4]"
result = "0/10"

